# IC50 annotations
Tested on: MCF7
Protocol text: Antiproliferative activity against human MCF7 cells after 48 hrs by MTT assay
Assay type: functional, cell-based
Condition context: MCF7, 48 h

| Molecule | IC50, µg/mL |
| --- | --- |
| Cc1ccc(S(=O)(=O)NC(=O)/C=C/c2ccc3c(c2)OCO3)cc1 | 48.9 |
| O=C(/C=C/c1ccc2c(c1)OCCO2)NS(=O)(=O)c1ccc(Cl)cc1 | 51.3 |
| COc1cc2c(c(OC)c1OC)-c1ccc(OC)c(=O)cc1[C@@H](NC(C)=O)CC2 [COLCHICINE] | 0.33 |
| O=C(/C=C/c1ccc2c(c1)OCCO2)NS(=O)(=O)c1ccc(F)cc1 | 52.1 |
| O=C(/C=C/c1ccc2c(c1)OCCCO2)NS(=O)(=O)c1ccccc1 | 53.9 |
